Origin of the recorded values: patent US20240101668A1

biological target: T1, huFLT3-T227 stably expressed on Ramos cells (human, UniProt P36888 27-993); experiment: FACS on cells
T1 construct: whole, on cells; also called FLT3 WT
measurementType: FACS geometric mean fold change over Jurkat parental

binder	assayValue
Polypeptide No. 249 (scFv, V domains shown, scFv) VH: QVQLVQSGAEVKKPGASVKVSCKASGYTFTSDGISWVRQAPGQGLEWMGWMNPNSGNAGYAQKFQGRVTMTRDTSTSTVYMELSSLRSEDTAVYYCATAVAGTDAFDIWGQGTMVTVSS VL: EIVMTQSPATLSVSPGERATLSCRASQSIGNNLKAWYQQKPGQAPRLLIYDTSAHTTGIPARFSGSGSGTEFTLTISSLQSEDFAVYYCQHYGNSLTFGQGTKVEIK	2 to 10 fold
Polypeptide No. 213 (scFv, V domains shown, scFv) VH: QVQLVQSGAEVKKPGASVKVSCKASGYTFSRYYMSWVRQAPGQGLEWMGWMNPNSGNTGYAQKFQGRVTMTRDTSTSTVYMELSSLRSEDTAVYYCARTRFAAQPHNWHFDLWGRGTLVTVSS VL: DIQMTQSPSSLSASVGDRVTITCRASQSISSYLNWYQQKPGKAPKLLIYDASNLKTGVPSRFSGSGSGTDFTLTISSLQPEDFATYYCQQSYSTPLTFGPGTKVDIKR	10 to 30 fold
Polypeptide No. 222 (scFv, V domains shown, scFv) VH: QVQLVQSGAEVKKPGASVKVSCKASGYSFTAYYMHWVRQAPGQGLEWMGIINPSGGSTSYAQKFQGRVTMTRDTSTSTVYMELSSLRSEDTAVYYCARVAGINGEMAYWGQGTLVTVSS VL: DIQMTQSPSSLSASVGDRVTITCRASQDISNYLAWYQQKPGKAPKLLIYAASTLQSGVPSRFSGSGSGTDFTLTISSLQPEDFATYYCQQSYRTPYTFGQGTKVEIKR	> 30 fold
Polypeptide No. 244 (scFv, V domains shown, scFv) VH: QVQLVQSGAEVKKPGASVKVSCKASGYTFTSYYMHWVRQAPGQGLEWMGRINPSGGSTSYAQSFQGRVTMTRDTSTSTVYMELSSLRSEDTAVYYCARVPGLYGGAIDYWGQGTLVTVSS VL: DIQMTQSPSSLSASVGDRVTITCRASQDIRNDLGWYQQKPGKAPKLLIYAASSLQSGVPSRFSGSGSGTDFTLTISSLQPEDFATYYCQQSYSSPFTFGQGTKVEIKR	> 30 fold

Continue with the binder presented below.
Record Polypeptide No. 260 (scFv, V domains shown, scFv) VH: QVQLVQSGAEVKKPGASVKVSCKASGYTFTNYYVHWVRQAPGQGLEWMGMINPSGGSTNYAQKFQGRVTMTRDTSTSTVYMELSSLRSEDTAVYYCARVSGWKRGWFDPWGQGTLVTVSS VL: DIQMTQSPSSLSASVGDRVTITCRSSQSISTYLNWYQQKPGKAPKLLIYGASNLQSGVPSRFSGSGSGTDFTLTISSLQPEDFATYYCQQVISYPITFGGGTKVEIKR , field FACS geometric mean fold change over Jurkat parental: > 30 fold
